Measured MIC (μg/ml) at 24 hours, MRSA 1 by item
test system: MRSA; test: Broth microdilution MIC, Example 7 (NCL812 and analogues); assay type: cell-based, Staphylococcus aureus; details: MRSA 1; 24 hours; duplicate lines per compound
Result Type: MIC (μg/ml) at 24 hours, MRSA 1 (µg/mL)

Cl.N=C(N/N=C/c1ccc2ccccc2c1)N/N=C/c1ccc2ccccc2c1	64
CCC(=NNC(=N)NN=C(CC)c1ccc(Cl)cc1)c1ccc(Cl)cc1.Cl	32
Cl.N=C(NN=Cc1ccc(O)c(O)c1O)NN=Cc1ccc(O)c(O)c1O	64
CN(C)c1ccc(C=NNC(=N)NN=Cc2ccc(N(C)C)cc2)cc1.Cl	16
CCCc1ccc(C=NNC(=N)NN=Cc2ccc(CCC)cc2)cc1.Cl	32
Cl.N=C(NN=Cc1ccc(SC(F)(F)F)cc1)NN=Cc1ccc(SC(F)(F)F)cc1	32

====

system: MRSA; assay: Broth microdilution MIC, Example 7 (NCL812 and analogues); assay type: cell-based, Staphylococcus aureus; details: MRSA 1; 24 hours; duplicate lines per compound
Result Type: MIC (μg/ml) at 24 hours, MRSA 1

Clc1ccc(CNc2nnc(-c3ccc(Cl)cc3)[nH]2)cc1	>128 µg/mL
Cl.N=C(NC(=O)c1ccccc1)N(N=Cc1ccccc1Cl)C(=O)c1ccccc1	>128 µg/mL
Cl.N=C(NN=Cc1cnc2ccccc2n1)NN=Cc1cnc2ccccc2n1	>128 µg/mL
Cl.N=C(N/N=C/c1ccc(Cl)cc1)N/N=C/c1ccc(C(F)(F)F)cc1	>128 µg/mL
Cl.N=C(N/N=C/C=C/c1ccccc1)N/N=C/C=C/c1ccccc1	>128 µg/mL
Cl.N=C(N/N=C/c1cccc([N+](=O)[O-])c1)N/N=C/c1cccc([N+](=O)[O-])c1	>128 µg/mL
Cl.N=C(NN=Cc1ccc(Cl)o1)NN=Cc1ccc(Cl)o1	>128 µg/mL
Cl.N=C(N/N=C/c1c(F)c(F)c(F)c(F)c1F)N/N=C/c1c(F)c(F)c(F)c(F)c1F	>128 µg/mL
Cl.N=C(NN=CC1=C(Cl)c2cc(F)ccc2OC1)NN=CC1=C(Cl)c2cc(F)ccc2OC1	>128 µg/mL
